test system: HeLa; test: Cytotoxicity against human HeLa cells after 72 hrs by MTT assay; type: cell-based
# maps each entry to its CC50

input: Note down CC50 recorded for `O=C(Nc1nc2cc(-c3cccnc3)ccn2n1)c1cccc(Cl)c1`
output: > 100 µM

API: the following record is the query input.
input: Input `O=C(Nc1nc2cc(-c3ccccc3)ccn2n1)c1cccc(Cl)c1` , output reported CC50.
output: > 100 µM

* * *

molecular target: Tyrosyl-DNA phosphodiesterase 2 (Homo sapiens); experiment: Inhibition of recombinant human TDP2 using T5PNP as substrate preincubated for 10 mins followed by substrate addition and measured after 30 mins
Sequence (O95551 whole entry): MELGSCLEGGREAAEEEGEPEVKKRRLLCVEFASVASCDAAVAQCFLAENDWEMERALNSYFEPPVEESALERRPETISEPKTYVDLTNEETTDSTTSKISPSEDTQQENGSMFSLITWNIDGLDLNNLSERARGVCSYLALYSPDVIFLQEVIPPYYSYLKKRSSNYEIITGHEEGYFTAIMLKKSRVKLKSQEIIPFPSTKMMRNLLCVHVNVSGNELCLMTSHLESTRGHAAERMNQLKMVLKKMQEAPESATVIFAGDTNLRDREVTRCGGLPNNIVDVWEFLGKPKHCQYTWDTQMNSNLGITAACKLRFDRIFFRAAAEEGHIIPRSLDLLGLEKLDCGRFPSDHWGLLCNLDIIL
measuredMetric: pIC50
The quantity pIC50 is defined as the negative base-10 logarithm of the molar concentration.

input: Return pIC50 for the following molecule: `NC1=CC(N)=C2C=CC(=O)N=C2C1=O`
output: 5.77
